Entry source: paper PMC6413231

tested on: RT-112 (minimum-invasive bladder) cancer cells; assay: MTT cytotoxicity assay, RT-112; format: cell-based, human; conditions: RT-112 cells, 72 h, ± standard error, read-out: Growth Inhibition Concentration, GI50
property-name: GI50

molecule	meas-value
N.N.[Cl][Pt][Cl] [Cisplatin, reference compound]	3.56 µM
COc1cccc2c1[O][Sn]([CH3])([CH3])[S]C(SCc1ccccc1C)=NN=C2 [Me2Sn(S2MoVa)]	2.4 µM
COc1cccc2c1[O][Sn]([CH3])([CH3])[S]C(SCc1ccc(C)cc1)=NN=C2 [Me2Sn(S4MoVa)]	> 5 µM
COc1cccc2c1[O][Sn]([CH3])([CH3])[S]C(SCc1ccccc1)=NN=C2 [Me2Sn(SBoVa)]	2.4 µM

Kindly review the next molecule as well.
Sure, the documented GI50 for COc1cccc2c1[O][Sn]([c]1ccccc1)([c]1ccccc1)[S]C(SCc1ccccc1)=NN=C2 [Ph2Sn(SBoVa)] is 0.58 µM
